Experimental System: ALR2 enzyme (Homo sapiens)
Construct: purchased ab273276
Assay Notes: ALR2 activity assay kit (ab273276), inhibition;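 also: inhibition calculated from the rate of NADPH cofactor consumption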
Assay type: biochemical
Experimental Parameters: Inhibitor concentration 5000 nm
Procedure: The obtained dose–response curve had concentrations of 10 μM, 5 μM, 500 nM, 50 nM, and 5 nM.
Can you tell me relative ALR2 inhibition for the items I'm about to list?

stdin: Sample COC(=O)[C@H](Cc1ccccc1)N/C(=N\c1nc2ccccc2s1)SC — what was its relative ALR2 inhibition?
stdout: 80.389%

stdin: Entry CNC(=O)C(Cc1ccccc1)N/C(=N\c1nc2ccccc2s1)SC (racemic) [12d] please
stdout: 48.448%

stdin: Now the same for CC(/C=C1\SC(=S)N(CC(=O)O)C1=O)=C\c1ccccc1 [Epa, epalrestat, reference compound]
stdout: 58.372%

stdin: # iterate: COC(=O)[C@@H](N/C(=N\c1nc2ccccc2s1)SC)c1ccccc1
stdout: 53.000%

###

Experimental System: ALR2 enzyme (Homo sapiens, UniProt P15121)
Construct: purchased ab273276
Assay Notes: ALR2 activity assay kit (ab273276), inhibition;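 also: inhibition calculated from the rate of NADPH cofactor consumption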
Type: biochemical
Experimental Parameters: Inhibitor concentration 50 nm
Quantity Kind: relative ALR2 inhibition (%)
Numeric answer only, unit % assumed.

stdin: Param readout = relative ALR2 inhibition; param system = ALR2 enzyme (Homo sapiens, UniProt P15121); param query = COC(=O)[C@H](Cc1ccccc1)N/C(=N\c1nc2ccccc2s1)SC ; response: value
stdout: 91.644

stdin: And the next one, CNC(=O)C(Cc1ccccc1)N/C(=N\c1nc2ccccc2s1)SC (racemic) [12d] ?
stdout: 32.532

stdin: Then what about the molecule CC(/C=C1\SC(=S)N(CC(=O)O)C1=O)=C\c1ccccc1 [Epa, epalrestat, reference compound] ?
stdout: 5.288

stdin: Also COC(=O)[C@@H](N/C(=N\c1nc2ccccc2s1)SC)c1ccccc1 , if possible.
stdout: 85.158

###

Experimental System: ALR2 enzyme (Homo sapiens)
Construct: purchased ab273276
Assay Notes: ALR2 activity assay kit (ab273276), inhibition;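 also: inhibition calculated from the rate of NADPH cofactor consumption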
Format: biochemical
Experimental Parameters: Inhibitor concentration 500 nm
Quantity Kind: relative ALR2 inhibition (%)
Kindly answer with a numeric value in %, unit omitted.

stdin: Report relative ALR2 inhibition for COC(=O)[C@H](Cc1ccccc1)N/C(=N\c1nc2ccccc2s1)SC [8d] please.
stdout: 86.494

stdin: Could you do the same for CC(/C=C1\SC(=S)N(CC(=O)O)C1=O)=C\c1ccccc1 [Epa, epalrestat, reference compound] , please?
stdout: 12.513

stdin: Same read-out for CNC(=O)C(Cc1ccccc1)N/C(=N\c1nc2ccccc2s1)SC (racemic) [12d] ?
stdout: 33.993

stdin: // query: COC(=O)[C@@H](N/C(=N\c1nc2ccccc2s1)SC)c1ccccc1 [8c]
stdout: 68.371

###

Kindly state relative ALR2 inhibition for each of the entries shown.
Experimental System: ALR2 enzyme (Homo sapiens)
Construct: purchased ab273276
Assay Notes: ALR2 activity assay kit (ab273276), inhibition;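 also: inhibition calculated from the rate of NADPH cofactor consumption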
Type: biochemical
Experimental Parameters: Inhibitor concentration
Hi! Could you send only the number? It should be in %, unit omitted.

stdin: Give relative ALR2 inhibition (ALR2 enzyme (Homo sapiens)) of the following compound: COC(=O)[C@@H](N/C(=N\c1nc2ccccc2s1)SC)c1ccccc1
stdout: 90.000

stdin: One more compound: COC(=O)[C@H](Cc1ccccc1)N/C(=N\c1nc2ccccc2s1)SC
stdout: 98.000

stdin: Would you kindly repeat that for CNC(=O)C(Cc1ccccc1)N/C(=N\c1nc2ccccc2s1)SC (racemic) [12d] ?
stdout: 32.814

stdin: Now try CC(/C=C1\SC(=S)N(CC(=O)O)C1=O)=C\c1ccccc1 [Epa, epalrestat, reference compound] .
stdout: 3.000

###

Answer each item with its documented relative ALR2 inhibition.
Experimental System: ALR2 enzyme (Homo sapiens, UniProt P15121)
Construct: purchased ab273276
Assay Notes: ALR2 activity assay kit (ab273276), inhibition;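 also: inhibition calculated from the rate of NADPH cofactor consumption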
Assay type: biochemical
Experimental Parameters: Inhibitor concentration 5 nm
Description: The obtained dose–response curve had concentrations of 10 μM, 5 μM, 500 nM, 50 nM, and 5 nM.
Write the number in % without appending the unit.

stdin: Give the measured relative ALR2 inhibition of CNC(=O)C(Cc1ccccc1)N/C(=N\c1nc2ccccc2s1)SC (racemic) [12d] .
stdout: 29.534

stdin: Try COC(=O)[C@@H](N/C(=N\c1nc2ccccc2s1)SC)c1ccccc1 next.
stdout: 82.945

stdin: Can you handle COC(=O)[C@H](Cc1ccccc1)N/C(=N\c1nc2ccccc2s1)SC next?
stdout: 93.590

stdin: Could you do the same for CC(/C=C1\SC(=S)N(CC(=O)O)C1=O)=C\c1ccccc1 [Epa, epalrestat, reference compound] , please?
stdout: 5.000
